These data points were gathered from patent US20230125550A1.

Quick reference: ELISA_avg of the listed items.
- Study Target: T1, recombinant human CD123-Fc (human, UniProt P26951 19-305)
- T1 construct: not shown: Fc part of CD123-Fc
- T1 sequence: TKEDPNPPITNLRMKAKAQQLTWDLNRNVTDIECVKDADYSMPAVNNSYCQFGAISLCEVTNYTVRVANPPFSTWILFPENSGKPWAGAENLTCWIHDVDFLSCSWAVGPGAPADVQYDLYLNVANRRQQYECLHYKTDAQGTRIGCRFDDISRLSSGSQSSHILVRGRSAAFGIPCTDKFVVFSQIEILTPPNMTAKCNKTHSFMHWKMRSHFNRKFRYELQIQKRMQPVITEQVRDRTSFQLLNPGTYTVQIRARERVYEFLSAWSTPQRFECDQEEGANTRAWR
- Test Summary: phage ELISA, A450 target/A450 IgG1-Fc
Number only, in ratio; omit the unit.

Consider the following illustrative entries.
| Binder | ELISA_avg (ratio) |
| --- | --- |
| SEQ ID NO 676 (designed binder) MGSWYEFDDRLEAIWDRLGALGGSEAELAAFEKEIAAFESELQAYKGKGNPEVEWLRETAADIRAELQAYRHN | 3.3 |
| SEQ ID NO 633 (designed binder) MGSWYEFWRRLDAIEERLWALGGSEAELAMFETDIAGFEWMLQLYKGKGNPEVEALEHEAWAINSELDAYRHN | 3.6 |
| SEQ ID NO 630 (designed binder) MGSWVEFYDRLEAIEIRLWALGGSEAELADFESFIAHFEDDLQAYKGKGNPEVEALMDEANAIVFELDAYRHN | 4 |

(Q) Param item = SEQ ID NO 658 (designed binder) MGSWVEFEYRLDAISDRLWALGGSEAELAFFENEIASFESDLQFYKGKGNPEVEALMFEAEAIDDELHAYRHN ; retrieve measured ELISA_avg.
(A) 6.5

(Q) Param item = SEQ ID NO 694 (designed binder) MGSWWEFLDRLDAIEMRLFALGGSEAELAAFEKEIAAFESELQAYKGKGNPEVEYLREEAALIRNMLQAYRHN ; retrieve measured ELISA_avg.
(A) 9

(Q) Param item = SEQ ID NO 712 (designed binder) MGSWIEFEDRLYAIEDRLWALGGSEAELAAFEKEIAAFESELQAYKGKGNPEVEFLRYEAAEIRYWLQAYRHN ; retrieve measured ELISA_avg.
(A) 4

(Q) Param item = SEQ ID NO 718 (designed binder) MGSWYEFYNRLDAIEDRLWALGGSEAELAAFEKEIAAFESELQAYKGKGNPEVEYLRQEAADIRGQLQAYRHN ; retrieve measured ELISA_avg.
(A) 11.3

(Q) Param item = SEQ ID NO 686 (designed binder) MGSWYEFYDRLDAIEWRLWALGGSEAELAAFEKEIAAFESELQAYKGKGNPEVEWLRDEAAQIRDFLQAYRHN ; retrieve measured ELISA_avg.
(A) 6.2

(Q) Param item = SEQ ID NO 705 (designed binder) MGSWVEFWDRLWAIEDRLWALGGSEAELAAFEKEIAAFESELQAYKGKGNPEVEHLRHYAADIRVWLQAYRHN ; retrieve measured ELISA_avg.
(A) 4.5
